system: Staphylococcus aureus; test: Antimicrobial activity against Staphylococcus aureus ATCC 29213 assessed as reduction in microbial growth measured after 20 hrs by CLSI based broth microdilution method; assay type: functional
measuredParameter: MIC (µg/mL)

Some compounds with recorded MIC:
| compound | measuredParameter | units | experimentalValue |
| --- | --- | --- | --- |
| O=[N+]([O-])c1ccc(OCC(O)CNCCNc2ccccc2C(F)(F)F)cc1 (stereo not given) | MIC | µg/mL | 64 |
| OC(CNCCNc1ccccc1C(F)(F)F)COCc1cccc(C(F)(F)F)c1.OC(CNCCNc1ccccc1C(F)(F)F)COCc1cccc(C(F)(F)F)c1 (stereo not given) | MIC | µg/mL | 128 |
| OC(CNCCNc1nccc(C(F)(F)F)n1)COc1ccc(C(F)(F)F)cc1 (stereo not given) | MIC | µg/mL | 64 |
| OC(CNCCNc1ccccc1C(F)(F)F)COc1ccc(C(F)(F)F)cc1 (stereo not given) | MIC | µg/mL | 16 |
| OC(CNCCNc1ccc(C(F)(F)F)cn1)COCc1ccccc1 (stereo not given) | MIC | µg/mL | 128 |
| O=[N+]([O-])c1ccc(OCC(O)CNCCNc2cc(C(F)(F)F)ccn2)cc1 (stereo not given) | MIC | µg/mL | 128 |

(1) N#Cc1ccc(OCC(O)CNCCNc2ccccc2C(F)(F)F)cc1 (stereo not given)
(2) OC(CNCCNc1ccc(C(F)(F)F)cn1)COCc1cccc(C(F)(F)F)c1 (stereo not given)
Query: Among 1 and 2 , which shows a numerically higher MIC result? Answer format: the label of the selected item.
Response: 1
